Biological target: Recombinant Human Poly(ADP-Ribose) Polymerase (PARP), PARP-1 (Homo sapiens (Human), UniProt P09874)
Sequence (P09874 whole entry): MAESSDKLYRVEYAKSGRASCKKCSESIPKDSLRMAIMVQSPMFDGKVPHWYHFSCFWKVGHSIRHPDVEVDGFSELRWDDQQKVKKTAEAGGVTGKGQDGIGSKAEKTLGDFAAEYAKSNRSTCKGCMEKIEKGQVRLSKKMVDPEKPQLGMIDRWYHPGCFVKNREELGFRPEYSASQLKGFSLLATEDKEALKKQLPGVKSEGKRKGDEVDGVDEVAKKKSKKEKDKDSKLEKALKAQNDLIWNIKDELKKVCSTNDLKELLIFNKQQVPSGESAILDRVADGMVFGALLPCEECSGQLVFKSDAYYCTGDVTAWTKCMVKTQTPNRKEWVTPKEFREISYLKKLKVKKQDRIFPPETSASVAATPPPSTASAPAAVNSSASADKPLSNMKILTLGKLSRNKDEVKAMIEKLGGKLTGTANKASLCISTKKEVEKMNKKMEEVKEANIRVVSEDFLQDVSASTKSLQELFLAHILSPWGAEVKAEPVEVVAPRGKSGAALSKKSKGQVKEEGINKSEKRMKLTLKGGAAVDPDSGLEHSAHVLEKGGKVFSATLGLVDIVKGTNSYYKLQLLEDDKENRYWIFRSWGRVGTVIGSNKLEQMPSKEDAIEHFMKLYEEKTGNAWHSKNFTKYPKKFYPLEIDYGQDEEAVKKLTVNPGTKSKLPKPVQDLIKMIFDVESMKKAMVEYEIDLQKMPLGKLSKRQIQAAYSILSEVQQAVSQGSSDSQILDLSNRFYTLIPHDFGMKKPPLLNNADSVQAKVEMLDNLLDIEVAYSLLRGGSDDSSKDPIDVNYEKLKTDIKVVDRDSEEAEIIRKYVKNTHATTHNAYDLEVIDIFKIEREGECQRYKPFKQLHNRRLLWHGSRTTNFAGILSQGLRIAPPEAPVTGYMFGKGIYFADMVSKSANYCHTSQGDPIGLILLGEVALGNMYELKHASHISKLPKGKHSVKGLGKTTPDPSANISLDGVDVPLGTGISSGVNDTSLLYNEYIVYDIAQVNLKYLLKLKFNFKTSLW
Conditions: read-out: PARP-1 (Ki); Table 1; text calls the values EC50s
Lab note: cut-off is 2 nM. Strictly less in Ki is 1. Exactly 2 nM or more is 0.

>  <Smiles entry>
Cc1ccccc1CCNC(=O)c1cccc(Cc2n[nH]c(=O)c3c2CCCC3)c1

>  <Category>
0

$$$$
>  <Smiles entry>
O=C(c1ccc2nc[nH]c2c1)N1CCN(C(=O)c2cc(Cc3n[nH]c(=O)c4c3NCCC4)ccc2F)CC1

>  <Category>
1

$$$$
>  <Smiles entry>
O=C(c1cc(Cc2n[nH]c(=O)c3c2CCCC3)ccc1F)N1CCN(c2cccc(C(F)(F)F)c2)CC1

>  <Category>
0

$$$$
>  <Smiles entry>
O=C(NC1CCN(C(=O)[C@@H]2CSCN2)CC1)c1cc(Cc2n[nH]c(=O)c3c2NCCC3)ccc1F

>  <Category>
0

$$$$
>  <Smiles entry>
CCNC(=O)c1cc(Cc2n[nH]c(=O)c3c2CCCC3)ccn1

>  <Category>
0

$$$$
>  <Smiles entry>
O=C(c1ccncc1)N1CCN(C(=O)c2cc(Cc3n[nH]c(=O)c4c3NCCC4)ccc2F)CC1

>  <Category>
1

$$$$
>  <Smiles entry>
Cc1ccc(C(=O)Nc2cccc(Cc3n[nH]c(=O)c4c3CCCC4)c2)c(O)c1

>  <Category>
0

$$$$
>  <Smiles entry>
O=C(c1ccccc1)N1CCN(C(=O)c2cc(Cc3n[nH]c(=O)c4c3CCCC4)ccc2F)CC1

>  <Category>
1

$$$$
>  <Smiles entry>
O=C(c1ccc2cc[nH]c2c1)N1CCN(C(=O)c2cc(Cc3n[nH]c(=O)c4c3NCCC4)ccc2F)CC1

>  <Category>
1

$$$$
>  <Smiles entry>
CCN(CCNC(=O)C1CC1)C(=O)c1cc(Cc2n[nH]c(=O)c3c2CCCC3)ccc1F

>  <Category>
1

$$$$
>  <Smiles entry>
O=C(NC1CCN(C(=O)c2cc(Cc3n[nH]c(=O)c4c3NCCC4)ccc2F)CC1)c1ccco1

>  <Category>
1

$$$$
>  <Smiles entry>
CN1CCN(CCNC(=O)c2cc(Cc3n[nH]c(=O)c4c3CCCC4)ccc2F)CC1

>  <Category>
1

$$$$
>  <Smiles entry>
O=C(c1cc(Cc2n[nH]c(=O)c3c2NCCC3)ccc1F)N1CCN(c2cccc(C(F)(F)F)c2)CC1

>  <Category>
0

$$$$
>  <Smiles entry>
Cc1ccc(CCNC(=O)c2cccc(Cc3n[nH]c(=O)c4c3CCCC4)c2)cc1

>  <Category>
0

$$$$

Where do the numbers come from? From patent US9283222B2.
